Provenance of the data: paper PMC10786891

- test.system: T1, EsCas13d, nuclease-dead (Eubacterium siraeum, UniProt B0MS50, R295A;H300A;R849A;H854A)
- T1 sequence: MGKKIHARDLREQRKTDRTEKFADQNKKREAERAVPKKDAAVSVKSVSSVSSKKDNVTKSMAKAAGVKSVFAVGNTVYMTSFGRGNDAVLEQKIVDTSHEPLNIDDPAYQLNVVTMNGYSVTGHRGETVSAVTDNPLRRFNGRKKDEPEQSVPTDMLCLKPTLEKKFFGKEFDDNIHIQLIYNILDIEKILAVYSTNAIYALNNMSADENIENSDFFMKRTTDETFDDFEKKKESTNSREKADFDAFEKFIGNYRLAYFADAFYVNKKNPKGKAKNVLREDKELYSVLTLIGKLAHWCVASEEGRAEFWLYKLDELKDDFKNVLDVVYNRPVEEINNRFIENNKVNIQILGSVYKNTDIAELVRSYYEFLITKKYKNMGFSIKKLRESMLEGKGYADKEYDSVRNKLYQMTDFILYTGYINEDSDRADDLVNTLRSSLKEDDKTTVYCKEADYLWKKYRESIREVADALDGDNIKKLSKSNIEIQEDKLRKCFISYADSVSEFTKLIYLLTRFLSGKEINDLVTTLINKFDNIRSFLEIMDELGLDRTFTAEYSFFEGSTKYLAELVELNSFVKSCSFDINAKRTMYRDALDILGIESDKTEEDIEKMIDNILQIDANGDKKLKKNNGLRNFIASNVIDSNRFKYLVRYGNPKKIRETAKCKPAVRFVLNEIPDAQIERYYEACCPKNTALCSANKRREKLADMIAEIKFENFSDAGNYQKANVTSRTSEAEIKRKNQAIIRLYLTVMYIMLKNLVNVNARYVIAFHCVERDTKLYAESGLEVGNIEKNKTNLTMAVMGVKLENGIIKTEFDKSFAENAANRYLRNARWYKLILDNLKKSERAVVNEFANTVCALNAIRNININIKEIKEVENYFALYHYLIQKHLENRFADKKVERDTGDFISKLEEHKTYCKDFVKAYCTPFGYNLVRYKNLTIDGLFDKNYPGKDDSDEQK
- test.method.notes: crRNA (strand 1, pre-loaded); Mg2+; 40 mM Tris-HCl pH 7.5, 150 mM NaCl, 6 mM MgCl2, 1 mM DTT, 0.1% Tween-20, 0.2 mg/ml BSA; 25 C; 10 min per concentration, then washed
- details: tags: His6-TwinStrep-SUMO cleaved; N-terminal SNAP kept (SNAP-Surface 488); label: 3' end held by stalled T7 RNA polymerase
pKd: −log10 of the molar value.
// Not fulfilled strictly below 8 in pKd; Fulfilled otherwise

Input line: Check this binder for pKd at or above 8: target 1 insU 3' of 21,insG 3' of 7 (mixed) RNA 1: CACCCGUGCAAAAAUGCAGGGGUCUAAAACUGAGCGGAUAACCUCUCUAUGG RNA 2: GGGAAUGGAUCCACAUCUACGAAUUCGUACCUAUAGAGAGGUUAUCGCGCUCACCGAGAUCGGAAGAGCACACGU
Output line: Not fulfilled

Input line: Answer whether pKd of target 1 G5C,C21A (mixed) RNA 1: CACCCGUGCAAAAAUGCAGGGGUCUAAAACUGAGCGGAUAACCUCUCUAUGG RNA 2: GGGAAUGGAUCCACAUCUACGAAUUCGUACAAUAGAGAGGUUAUCCCCUCACCGAGAUCGGAAGAGCACACGU is greater than or equal to 8.
Output line: Not fulfilled

Input line: Threshold query (pKd >= 8) on target 2 MT 5'PFS CUU 3'PFS UAC (mixed) RNA 1: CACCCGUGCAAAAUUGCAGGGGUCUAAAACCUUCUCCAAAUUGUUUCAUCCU RNA 2: GGGAAUGGAUCCACAUCUACGAAUUCCUUAGGAUGAAACAAUUUGGAGAAGUACAGAUCGGAAGAGCACACGU
Output line: Fulfilled

Input line: // inclusive: pKd at least 8? input: target 2 MT 5'PFS CUG 3'PFS CAG (mixed) RNA 1: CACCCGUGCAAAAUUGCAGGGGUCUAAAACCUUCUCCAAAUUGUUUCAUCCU RNA 2: GGGAAUGGAUCCACAUCUACGAAUUCCUGAGGAUGAAACAAUUUGGAGAAGCAGAGAUCGGAAGAGCACACGU
Output line: Fulfilled

Input line: Does target 1 C6A,G15C (mixed) RNA 1: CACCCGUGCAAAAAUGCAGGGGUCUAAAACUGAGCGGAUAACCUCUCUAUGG RNA 2: GGGAAUGGAUCCACAUCUACGAAUUCGUACCAUAGACAGGUUAUCAGCUCACCGAGAUCGGAAGAGCACACGU have a reported pKd of at least 8?
Output line: Not fulfilled

Input line: Does pKd meet or surpass 8 for target 3 U2G,C6G (mixed) RNA 1: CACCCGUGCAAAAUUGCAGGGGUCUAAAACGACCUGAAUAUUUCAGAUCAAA RNA 2: GGGAAUGGAUCCACAUCUACGAAUUCGUUUUUGAUCUGAAAUAUUGAGGGCUGCAGAUCGGAAGAGCACACGU ?
Output line: Not fulfilled

Input line: hey, is pKd for this one >= 8? target 3 C6U,A13G (mixed) RNA 1: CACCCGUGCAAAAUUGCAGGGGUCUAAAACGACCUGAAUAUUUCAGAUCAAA RNA 2: GGGAAUGGAUCCACAUCUACGAAUUCGUUUUUGAUCUGGAAUAUUUAGGUCUGCAGAUCGGAAGAGCACACGU
Output line: Not fulfilled

Input line: API: above_or_equal(metric=pKd, cutoff=8) for item target 3 G3A,U7A (mixed) RNA 1: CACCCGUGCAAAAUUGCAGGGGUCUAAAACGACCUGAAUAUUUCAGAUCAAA RNA 2: GGGAAUGGAUCCACAUCUACGAAUUCGUUUUUGAUCUGAAAUAUACAGAUCUGCAGAUCGGAAGAGCACACGU
Output line: Not fulfilled

Input line: Is pKd at least 8? Consider target 1 A1G,A18U (mixed) RNA 1: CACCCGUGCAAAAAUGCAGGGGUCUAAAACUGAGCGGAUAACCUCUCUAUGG RNA 2: GGGAAUGGAUCCACAUCUACGAAUUCGUACCAUUGAGAGGUUAUCCGCUCGCCGAGAUCGGAAGAGCACACGU
Output line: Not fulfilled

Input line: Say whether target 1 insC 3' of 16,insC 3' of 1 (mixed) RNA 1: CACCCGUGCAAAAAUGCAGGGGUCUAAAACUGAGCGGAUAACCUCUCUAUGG RNA 2: GGGAAUGGAUCCACAUCUACGAAUUCGUACCAUAGACGAGGUUAUCCGCUCACCCGAGAUCGGAAGAGCACACGU shows pKd of 8 or more.
Output line: Not fulfilled
